System: Rhizoctonia cerealis
assay-notes: Fungicidal activity, fungi growth rate method, RC
Type: cell-based
recorded-conditions: Ceratobasidium cereale; 50 μg/mL; read-out: Fungicidal activity, inhibition, RC
Label Y for high-side inhibition at 50 µg/mL (at or above 20%) and N for low-side inhibition at 50 µg/mL (below it).

Example results:
COC(=O)CCNC(=O)/C(=C/c1ccccc1)NC(=O)c1ccccc1 [Compound 35]
N
CC(C)(C)OC(=O)N1CCC(c2nc(C(=O)NCC(=O)O)cs2)CC1 [Compound 65]
N
O=C(N/C(=C\c1ccccc1)C(=O)N1CCC(O)(c2ccc(Br)cc2)CC1)c1ccccc1 [Compound 76, reference compound]
N
O=C(N/C(=C\c1ccccc1)C(=O)N1CCC(O)(c2ccc(Br)cc2)CC1)c1ccccc1[N+](=O)[O-] [Compound 12]
N
O=C(N/C(=C\c1ccco1)C(=O)N1CCC(O)(c2ccc(Br)cc2)CC1)C1CCCCC1 [Compound 63]
Y
O=C(N/C(=C\c1ccc([N+](=O)[O-])cc1)C(=O)N1CCC(O)(c2ccc(Br)cc2)CC1)c1ccccc1 [Compound 23]
Y

Field: next compound
Does the reported inhibition at 50 µg/mL for O=C(N/C(=C\c1ccccc1)C(=O)N1CCC(O)(c2ccc(Br)cc2)CC1)C1CCCCC1 [Compound 2] fall at or above the 20% mark?
N
